assay: chemical genetic growth profiling, strain panel (AID 1159580);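 note: tested at 20 µM; growth read once vehicle control cultures reached saturation at 30 °C; lower values mean less growth of the strain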; conditions: S. cerevisiae deletion strains, growth OD, locus YPR111W, strain DBF20
The campaign covered roughly 5,500 compounds. About 2,000 (36%) were called active. Another 18% or so got no clear call; they are omitted. Cut-off read from the data, not from the text of the source: active = normalized growth mostly below about 0.91 (no sharp cut-off); inconclusive = no clear call, values can overlap the other calls; inactive = mostly above about 0.92. The list shows a part of the results.
Outcome codes: active, inactive

molecule=N=c1ccc2nc3c(Cl)c4c(c(Cl)c3oc-2c1S(=O)(=O)O)Nc1ccc(N)c(S(=O)(=O)O)c1O4 classification=inactive
molecule="CC(O)(CNCc1ccc(Cl)cc1)CSc1ccccc1Cl (stereo not drawn)" classification=inactive
molecule=N#Cc1c(Br)cnn1Cc1cc(C(F)(F)F)cc(C(F)(F)F)c1 classification=inactive
molecule=Clc1ccc(-c2csc(Nc3ccccc3)n2)s1 classification=inactive
molecule="CCC(C)COC(=O)/C=C/c1ccc(N=Cc2ccc(OC)cc2)cc1 (stereo not drawn)" classification=inactive
molecule=O=C1Nc2ccccc2/C1=N/N=C\c1cc(Br)cc(Br)c1O classification=inactive
molecule=N#CCC(=O)c1cccc(CSc2ccccc2Cl)c1 classification=inactive
molecule=O=C1Nc2ccccc2/C1=N/N=C\c1ccccc1Cl classification=inactive
molecule=Cc1ccc2c(c1)CCCN2CC(=O)N(c1ccccc1)C1CCCCC1 classification=inactive
molecule=COc1cc(NC(=S)Nc2ccccc2OC(F)(F)F)cc(C(F)(F)F)c1 classification=inactive
molecule=CC(C)CSc1nnc(CSCc2nc(-c3ccc(Cl)cc3)cs2)n1C classification=inactive
molecule=N/C(CSc1ccc(Cl)cc1)=N/OC(=O)c1ccc(C(F)(F)F)cc1 classification=active
molecule=O=C(CSCc1nc(-c2ccc(Cl)cc2)cs1)N/N=C\c1cccs1 classification=inactive

Cited source for all entries: PubChem BioAssay AID1159580
